Molecular target: TXA2 receptor (Homo sapiens)
Construct: The human platelet membrane fraction was prepared in accordance with Experiment 1 (1); from tissue; host or cells: human platelet membrane fraction from blood of healthy volunteers
Sequence (P21731 whole entry): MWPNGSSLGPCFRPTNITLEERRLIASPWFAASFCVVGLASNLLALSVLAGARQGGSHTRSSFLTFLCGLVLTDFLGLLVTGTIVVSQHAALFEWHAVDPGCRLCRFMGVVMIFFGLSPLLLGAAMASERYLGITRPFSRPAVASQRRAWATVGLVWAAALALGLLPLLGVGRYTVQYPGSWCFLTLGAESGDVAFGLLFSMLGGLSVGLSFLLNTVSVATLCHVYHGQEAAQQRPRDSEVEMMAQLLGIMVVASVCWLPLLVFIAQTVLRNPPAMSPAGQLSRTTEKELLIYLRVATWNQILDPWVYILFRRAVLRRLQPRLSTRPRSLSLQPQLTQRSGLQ
Test: Binding activity to TXA2 receptor in human platelet membrane fraction ([3H](+)-S-145 sodium salt)
Conditions: 2 nM [3H](+)-S-145 sodium salt, room temperature, 90 min; read-out: Binding activity to TXA2 receptor in human platelet membrane fraction IC50
observation_type: IC50 (nM)

Examples with answers:
{"columns": ["molecule", "value_measured"],
 "data": [
  ["O=C(O)CCCC=CCC1C2CCC(C2)C1NC(=O)c1ccc(S(=O)(=O)c2cccs2)s1 (stereo not shown) [Compound I-47]", 6.2],
  ["O=C(O)CCCC=CCC1C2CCC(C2)C1NC(=O)c1ccc(Cc2ccsc2)s1 (stereo not shown) [Compound I-88]", 78],
  ["O=C(O)CCCC=CCC1C2CCC(C2)C1NC(=O)c1ccc(Cc2csc3ccccc23)s1 (stereo not shown) [Compound I-182]", 28],
  ["O=C(O)CCC/C=C\\C[C@H]1[C@@H]2CC[C@@H](C2)[C@@H]1NC(=O)c1ccc(S(=O)(=O)n2cccc2)s1 [Compound I-1b]", 3],
  ["O=C(O)CCCC=CCC1C2CCC(C2)C1NC(=O)c1ccc(Sc2cccs2)s1 (stereo not shown) [Compound I-59]", 16]
]}

P: O=C(O)CCCC=CCC1C2CCC(C2)C1NC(=O)c1csc2c(Cc3ccsc3)cccc12 (stereo not shown) [Compound I-169]
Q: Cc1cc(S(=O)(=O)c2ccc(C(=O)NC3C(CC=CCCCC(=O)O)CC4CC3C4(C)C)s2)cs1 (stereo not shown) [II-30]
R: CC1(C)C2CC(CC=CCCCC(=O)O)C(NC(=O)c3ccc(S(=O)(=O)n4cccc4)s3)C1C2 (stereo not shown) [II-15]
S: Cc1ccc(S(=O)(=O)c2ccc(C(=O)NC3C4CCC(C4)C3CC=CCCCC(=O)O)s2)s1 (stereo not shown) [Compound I-82]
Ask: I would appreciate it if you could sort these 4 molecules by IC50, starting from the smallest number. Response field: labels, in requested order.
Result: S, Q, R, P

P: O=C(O)CCCC=CCC1C2CCC(C2)C1NC(=O)c1csc2c(Cc3cccs3)cccc12 (stereo not shown) [Compound I-168]
Q: Cc1cccn1S(=O)(=O)c1ccc(C(=O)NC2C(CC=CCCCC(=O)O)CC3CC2C3(C)C)s1 (stereo not shown) [II-34]
Ask: Could you please tell me which of these two has the higher IC50: P or Q ? Kindly state the label of the option you pick.
Result: P

A: Cc1ccc(Cc2ccc(C(=O)NC3C4CCC(C4)C3CC=CCCCC(=O)O)s2)s1 (stereo not shown) [Compound I-129]
B: O=C(O)CCCC=CCC1C2CCC(C2)C1NC(=O)c1ccc(SCc2cccs2)s1 (stereo not shown) [Compound I-106]
Ask: // which entry has the larger IC50 value, A or B ? Mark your answer with the label of the selected entry.
Result: A
(A: 52 nM, B: 13 nM)

---

Molecular target: PGD2 receptor (Homo sapiens)
Sequence (Q13258 whole entry): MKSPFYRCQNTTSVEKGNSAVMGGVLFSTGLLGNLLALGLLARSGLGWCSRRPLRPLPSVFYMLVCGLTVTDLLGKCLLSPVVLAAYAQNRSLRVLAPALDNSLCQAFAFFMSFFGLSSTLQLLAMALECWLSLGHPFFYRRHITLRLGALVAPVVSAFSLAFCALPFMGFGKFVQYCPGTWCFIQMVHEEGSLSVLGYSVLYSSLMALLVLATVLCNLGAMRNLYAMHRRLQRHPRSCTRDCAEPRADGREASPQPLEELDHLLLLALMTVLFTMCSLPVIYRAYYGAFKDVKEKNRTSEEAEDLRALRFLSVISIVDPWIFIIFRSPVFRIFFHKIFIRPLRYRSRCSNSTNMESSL
Experiment: Antagonistic activity against PGD2 receptor using human platelet (inhibition of cAMP increase caused by PGD2)
Type: cell-based
Details: 0.1 μM PGD2; read-out: Inhibitory activity for the increase of cAMP caused by PGD2 in human platelet IC50
pIC50: −log10 of the molar value.
observation_type: pIC50

As a guide, the following entries are already answered.
{"columns": ["compound", "pIC50"],
 "data": [
  ["Cc1ccc(S(=O)(=O)c2ccc(C(=O)NC3C4CCC(C4)C3CC=CCCCC(=O)O)s2)s1 (centres unmarked) [Compound I-82]", 7.28],
  ["O=C(O)CCCC=CCC1C2CCC(C2)C1NC(=O)c1ccc(Cc2cccs2)s1 (centres unmarked) [Compound I-93]", 8.08],
  ["O=C(O)CCCC=CCC1C2CCC(C2)C1NC(=O)c1ccc(S(=O)(=O)c2cccs2)s1 (centres unmarked) [Compound I-47]", 8.15]
]}

1: CC1(C)C2CC(CC=CCCCC(=O)O)C(NC(=O)c3ccc(S(=O)(=O)n4cccc4)s3)C1C2 (centres unmarked) [II-15]
2: O=C(O)CCCC=CCC1C2CCC(C2)C1NC(=O)c1ccc(S(=O)(=O)c2ccsc2)s1 (centres unmarked) [Compound I-80]
3: CC1(C)C2CC(CC=CCCCC(=O)O)C(NC(=O)c3ccc(S(=O)(=O)c4cccs4)s3)C1C2 (centres unmarked) [II-18]
4: O=C(O)CCC/C=C\C[C@H]1[C@@H]2CC[C@@H](C2)[C@@H]1NC(=O)c1ccc(S(=O)(=O)n2cccc2)s1 [Compound I-1b]
Ask: Please put the entries in order of rising pIC50. Would you mind listing the labels in the order requested?
Result: 2, 1, 3, 4
